Data origin: ChEMBL document CHEMBL1909294

Lab note: DILI positive/negative readings collected with Hepatotoxicity for the following compounds.
// return a plain number; no unit text

{"COMPOUND": "CCC1(c2ccccc2)CCC(=O)NC1=O (stereo not given) [GLUTETHIMIDE]", "DILI positive/negative": 1}

**Q:** Given CN1CCN2c3ccccc3Cc3ccccc3C2C1 (stereo not given) , state its recorded DILI positive/negative.
**A:** 1

**Q:** Item: CC[C@]1(O)C[C@@H]2CN(CCc3c([nH]c4ccccc34)[C@@](C(=O)OC)(c3cc4c(cc3OC)N(C)[C@H]3[C@@](O)(C(=O)OC)[C@H](OC(C)=O)[C@]5(CC)C=CCN6CC[C@]43[C@@H]65)C2)C1.O=S(=O)(O)O [VINBLASTINE SULFATE]
**A:** 0

**Q:** Item: C[C@]12CC[C@@H]3c4ccc(O)cc4CC[C@H]3[C@@H]1CCC2=O
**A:** 1

**Q:** Item: C[C@@](Cc1ccc(O)c(O)c1)(NN)C(=O)O.O
**A:** 0

**Q:** Item: O[C@H]1[C@H](O)[C@@H](O)[C@H](O)[C@@H](O)[C@H]1O
**A:** 0
